Target: wild type B-Raf (Homo sapiens (Human))
Sequence (P15056 whole entry): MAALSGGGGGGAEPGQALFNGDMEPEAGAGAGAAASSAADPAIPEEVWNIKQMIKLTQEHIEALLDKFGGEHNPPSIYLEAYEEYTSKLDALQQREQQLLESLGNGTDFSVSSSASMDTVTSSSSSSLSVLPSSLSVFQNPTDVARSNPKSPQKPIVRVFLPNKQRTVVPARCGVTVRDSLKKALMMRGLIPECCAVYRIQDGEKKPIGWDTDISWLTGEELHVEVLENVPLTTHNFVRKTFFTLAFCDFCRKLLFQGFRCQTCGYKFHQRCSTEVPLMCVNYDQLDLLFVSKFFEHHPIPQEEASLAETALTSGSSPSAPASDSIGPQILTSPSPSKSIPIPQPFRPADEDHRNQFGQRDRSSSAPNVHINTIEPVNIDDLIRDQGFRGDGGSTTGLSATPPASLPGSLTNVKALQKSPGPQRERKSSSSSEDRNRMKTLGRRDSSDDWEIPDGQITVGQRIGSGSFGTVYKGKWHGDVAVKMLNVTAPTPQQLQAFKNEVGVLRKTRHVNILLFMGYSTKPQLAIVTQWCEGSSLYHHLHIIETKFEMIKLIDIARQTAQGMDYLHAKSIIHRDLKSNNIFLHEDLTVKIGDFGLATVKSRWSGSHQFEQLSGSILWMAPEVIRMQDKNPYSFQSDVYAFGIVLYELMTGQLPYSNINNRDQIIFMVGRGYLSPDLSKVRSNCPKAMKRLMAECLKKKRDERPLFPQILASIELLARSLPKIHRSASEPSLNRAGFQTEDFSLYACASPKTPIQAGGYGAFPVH
Assay: WT BRaf IC50 assay, TR-FRET
Type: biochemical
Conditions: Km ATP ([…] ATP); read-out: IC50 Braf-WT Km ATP
Procedure: WT BRaf IC50 Assay Protocol Compounds disclosed herein were tested against wild type B-Raf (PV3848, from Invitrogen) in a time-resolved fluorescence energy transfer assay. […] Plates were sealed and incubated at room temperature for 1.5 hours, and then the TR-FRET signals were read on BMG PHERAstar FS instrument. The IC50 for each compound was calculated by non linear regression by Graphpad Prism software.
Property: pIC50
Convention used: pIC50 is expressed as -log10 of the molar concentration.

What does the record list as pIC50 for N#CC1(c2cccc(C(=O)N[C@@H]3[C@H]4Oc5ccc(Oc6ccnc7c6CCC(=O)N7)cc5[C@@H]34)c2)CC1 [Compound 1.46] ?
8.85

Same for O=C1CCc2c(Oc3ccc4c(c3)[C@H]3[C@H](NC(=O)c5ccc(CN6CCOCC6)c(C(F)(F)F)c5)[C@H]3O4)ccnc2N1 [Compound 1.7]
7.44

Kindly review the next compound as well.
Which pIC50 reading was recorded for the compound CN(C)C1CCN(Cc2ccc(C(=O)N[C@@H]3[C@H]4Oc5ccc(Oc6ccnc7c6CCC(=O)N7)cc5[C@@H]34)cc2C(F)(F)F)CC1 [Compound 1.20] ?
7.80
